- Tested Target: CIB1 and αIIb interaction (CIB1-GST : F-αIIb peptide) (Homo sapiens, UniProt Q99828)
- Construct: made in house; host or cells: BL-21 plus RIL cells (E. coli)
- Sequence (Q99828 1-191): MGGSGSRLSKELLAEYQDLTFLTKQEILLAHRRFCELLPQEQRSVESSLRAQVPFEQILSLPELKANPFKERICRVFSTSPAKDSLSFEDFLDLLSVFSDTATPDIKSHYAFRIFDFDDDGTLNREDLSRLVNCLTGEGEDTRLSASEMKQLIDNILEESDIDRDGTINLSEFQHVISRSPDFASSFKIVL
- Test Summary: FP assay, 1536-well qHTS format (primary and confirmatory screen)
- Type: binding
- Measurement Setup: qHTS primary screen hits, Table S2; read-out: IC50
Measurement Label: log10 IC50 (log10 of the value in µM)

- O=C(Nc1ccc(Oc2ccc(Cl)cc2)c(Cl)c1)c1cc(I)cc(I)c1O [NCGC00160556-02]: 1.95
- Oc1ccc(Cl)c2cccnc12 [NCGC00095303-04]: 1.75
- Cc1ccc(O)c2ncccc12 [NCGC00164506-02]: 1.65
- O=C(O)C(F)(F)F.O=C(c1cccs1)c1no[n+]([O-])c1C(=O)c1cccs1 [NCGC00071855-05]: 1.06
- O=C(N/N=C1\C(=O)N(CCc2ccccc2)c2ccccc21)c1cccnc1 [NCGC00420788-01]: 1.35
- O=C(O)C(F)(F)F.O=C(O)c1ccc(O)c2ncc(N3CCN(Cc4ccccc4)CC3)cc12 [NCGC00241045-04]: 1.75
- O=Cc1c(-c2ccccc2)no[n+]1[O-] [NCGC00168371-01]: 1.70
- Cc1ccc(S(=O)(=O)Nc2cc3c(cc2C(=O)Nc2nc(-c4ccccc4)cs2)OCO3)cc1.O=C(O)C(F)(F)F [NCGC00263702-01]: 1.60
- CCCCCCCCCCCCCCC[C@H](O)[C@@H](N)CO [NCGC00015362-05]: 2.00
- CS(=O)(=O)c1ccc(C(=O)C2C(=O)CCCC2=O)c([N+](=O)[O-])c1 [NCGC00163843-03]: 2.10
- Cc1cccc(S(=O)(=O)Nc2cnccc2C(=O)Nc2nc(-c3ccccc3)cs2)c1.O=C(O)C(F)(F)F [NCGC00344904-01]: 1.75
- CC(=O)N1CCN(c2ccc(NC[C@H]3CO[C@](Cn4ccnc4)(c4ccc(Cl)cc4Cl)O3)cc2)CC1 [NCGC00250372-03]: 1.65
- O=C(O)C(F)(F)F.O=C1CCCC2=C1C(c1n[nH]cc1Cl)NC(Nc1nc3ccccc3o1)=N2 (centres unmarked) [NCGC00242659-02]: 1.50
- O=C(O)C(F)(F)F.O=C1CCC2=C1C1(CCCC1)N=C(Nc1nc3ccccc3o1)N2 [NCGC00188036-01]: 0.45
- CNC[C@H](O)c1ccc(O)c(O)c1 [NCGC00015417-04]: 1.85
- NS(=O)(=O)c1ccc(Cc2cn(-c3nc(C(=O)O)cs3)nc2-c2ccc(F)c(F)c2)cc1.O=C(O)C(F)(F)F [NCGC00356753-01]: 1.50
- NC[C@H](O)c1ccc(O)c(O)c1 [NCGC00159406-07]: 1.33

---

- Tested Target: CIB1 and αIIb interaction (CIB1-GST : F-αIIb peptide) (Homo sapiens, UniProt Q99828)
- Construct: made in house; host or cells: BL-21 plus RIL cells (E. coli)
- Test Summary: FP assay, 1536-well qHTS format (primary and confirmatory screen)
- Type: binding
- Measurement Setup: qHTS primary screen hits, Table S2; read-out: IC50
Measurement Label: IC50 (µM)

• COc1nn(CSP(=S)(OC)OC)c(=O)s1 = 58.6
• Cc1c(Cl)cccc1-n1c(CCC(=O)O)ccc1-c1cccs1 = 50.1
• COc1ccccc1C(=O)/C=C1/C(=O)Nc2ccc(C)cc21.O=C(O)C(F)(F)F = 14.1
• Cc1ccn2c(Nc3ccc4c(c3)OCO4)c(-c3ccccn3)nc2c1.O=C(O)C(F)(F)F = 56.2
• Cc1ccc(C)c(SC2=NS(=O)(=O)c3cc(C(=O)Nc4ccc5ncccc5c4)ccc32)c1 = 44.7
• Cc1ccc(S(=O)(=O)Nc2cc([N+](=O)[O-])ccc2C(=O)Nc2nc(-c3ccccc3)cs2)cc1.O=C(O)C(F)(F)F = 10
• NS(=O)(=O)c1ccc(NCc2cn(-c3nc(C(=O)O)cs3)nc2-c2ccccc2)cc1.O=C(O)C(F)(F)F = 56.2
• Cc1ccc(CNc2ncnc3ccc(-c4ccc(CO)o4)cc23)o1.O=C(O)C(F)(F)F = 50.1

---

Below is a list of entries, each paired with its recorded pIC50 value.
- Tested Target: CIB1 and αIIb interaction (CIB1-GST : F-αIIb peptide) (Homo sapiens, UniProt Q99828)
- Construct: made in house; host or cells: BL-21 plus RIL cells (E. coli)
- Test Summary: FP assay, 1536-well qHTS format (primary and confirmatory screen)
- Type: binding
- Measurement Setup: qHTS FP screen hits, Table S2; read-out: IC50
pIC50: −log10 of the molar value.
Measurement Label: pIC50

• O=c1sc2ccccc2c(O)c1C1CC(c2ccc(-c3ccc(Br)cc3)cc2)Cc2ccccc21 (stereo not shown) [NCGC00262959-01] = 4.75
• C=C1C(OC(=O)/C(C)=C\C)[C@@]23CCC4[C@@](C)(CCC[C@@]4(C)C(=O)O)C2CC[C@H]1C3OC(C)=O (stereo partly shown) [NCGC00381205-01] = 4.70
• CNc1ccc([N+](=O)[O-])c(Nc2ccc3[nH]ncc3c2)n1 [NCGC00387499-01] = 5.46
• Cc1cc(NS(=O)(=O)c2ccc(NCCc3ccc(Cl)c(Cl)c3)cc2)no1.O=C(O)C(F)(F)F [NCGC00244100-02] = 4.65

---

- Tested Target: CIB1 and αIIb interaction (CIB1-GST : F-αIIb peptide) (Homo sapiens, UniProt Q99828)
- Construct: made in house; host or cells: BL-21 plus RIL cells (E. coli)
- Test Summary: FP assay, 1536-well qHTS format (primary and confirmatory screen)
- Format: binding
- Measurement Setup: qHTS primary screen hits, Table S2; NPACT library; negative sign = inhibitory curve
Measurement Label: Curve Class

- CC1OC2OC(=O)C3(C)CC4C5(CO5)C5=CC(=O)OC(C)(C)C5=CC(=O)C4(C)C(C1=O)C23 (centres unmarked) [NCGC00380663-01]: -2.2
- CC(=O)N[C@@H](CC(=O)O)C(=O)N[C@@H](CCC(=O)O)C(=O)N[C@H](C(=O)N[C@@H](CC(=O)O)C(=O)Nc1ccc2c(C)cc(=O)oc2c1)C(C)C [NCGC00485360-01]: -2.4
- O=C1Nc2ccc3ncsc3c2/C1=C/c1c[nH]cn1 [NCGC00387501-01]: -1.4
- CCc1c(-c2ccccc2)c(-c2ccccc2)nn1-c1ccccc1-c1cccc(OCC(=O)O)c1 [NCGC00387254-02]: -2.4
- C=C(C)C(=O)OC1CC2(C)OC(=CC2=O)C(=C)CC2OC(=O)C(COC)C12 (centres unmarked) [NCGC00380534-01]: -1.4

---

- Tested Target: CIB1 and αIIb interaction (CIB1-GST : F-αIIb peptide) (Homo sapiens)
- Construct: made in house; host or cells: BL-21 plus RIL cells (E. coli)
- Sequence (Q99828 1-191): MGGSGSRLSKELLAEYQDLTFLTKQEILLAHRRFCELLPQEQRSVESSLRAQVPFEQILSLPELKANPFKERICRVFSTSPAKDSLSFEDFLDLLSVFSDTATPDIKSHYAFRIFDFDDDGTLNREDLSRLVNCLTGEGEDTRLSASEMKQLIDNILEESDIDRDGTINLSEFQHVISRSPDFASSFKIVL
- Test Summary: FP assay, 1536-well qHTS format (primary and confirmatory screen)
- Assay type: binding
- Measurement Setup: qHTS primary screen of LOPAC/NPACT libraries; negative sign = inhibitory curve
Where a SMILES comes first, the peptide text is derived from it. The star is where a group is joined. Cbz = O=C(OCc1ccccc1)*; CH2Cl = ClC*
Here, each record is paired with measured Curve Class data.
Measurement Label: Curve Class

* CC(C)NC[C@@H](O)c1ccc(O)c(O)c1 [NCGC00179436-02] | -2.2
* CC(C)C[C@H](NC(=O)CNC(=O)OCc1ccccc1)C(=O)N[C@@H](Cc1ccccc1)C(=O)CCl [NCGC00485375-01] (Cbz-Gly-Leu-Phe-CH2Cl) | -2.4
* CCOc1ccc(-c2cc(NC(=O)c3c(F)cccc3F)c(C(=O)O)s2)cc1 [NCGC00386875-01] | -1.4
* C=C1C(=O)O[C@@H]2C/C(C)=C\C(=O)/C=C(\C)[C@@H](OC(=O)/C(C)=C\C)[C@H](O)[C@@H]12 [NCGC00380290-01] | -1.4
* CCC(C)CC(=O)OC1C(=O)C(CO)=CC(O)C1C(C)C (stereo not drawn) [NCGC00381331-01] | -2.4
* N.N.N.N.N.N.N.N.N.N.N.N.N.N.O.O.[Ru].[Ru].[Ru] [NCGC00162333-02] | -2.2
* CS(=O)(=O)O.CSc1ccc2c(c1)C(N1CCN(C)CC1)Cc1ccccc1S2 (stereo not drawn) [NCGC00024665-06] | -2.4
* Cc1ccc(O)c(N=Nc2ccccc2)n1 [NCGC00185991-01] | -1.2
* CNC(=O)c1ccccc1Nc1cc(Nc2ccc(N3CCOCC3)cc2OC)ncc1C(F)(F)F [NCGC00378620-04] | -1.4
* COc1cc(N2CCC(N3CCN(C)CC3)CC2)ccc1Nc1ncc(Cl)c(-c2c[nH]c3ccccc23)n1 [NCGC00390583-01] | -2.4
* COC(=O)CC1OC(C)C2=C(O)c3c(O)cccc3C(=O)C23OC13 (stereo not drawn) [NCGC00381362-01] | -2.4
* CC1CC2(O)OC(=O)C3=C2C(CCC3)[C@@]12C[C@@H](c1ccoc1)OC2=O (stereo partly drawn) [NCGC00385045-01] | -2.4
* CCC(C)(OC(C)=O)C(=O)O[C@H]1[C@H](OC(C)=O)C[C@@H]2[C@@](C)([C@@H]3C[C@H]4C=CO[C@H]4O3)[C@H](C)C[C@H](OC(C)=O)[C@@]2(COC(C)=O)[C@@]12CO2 (stereo partly drawn) [NCGC00380906-01] | -2.4
* C=C1CC(=O)C2OC2(C)CC2OC(=O)C(=C)C2C(O)C1OC(=O)/C(C)=C\C (stereo not drawn) [NCGC00381057-01] | -1.4
* C=C1C(=O)OC2/C=C(\C)CC/C=C(\C)CC(OC(C)=O)C12 (stereo not drawn) [NCGC00385946-01] | -1.4
